tested on: NEK4; conditions: Compound Concentration (nM):1000;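 note: KINOMEscan scanMAX binding as percent activity remaining versus control; lower means stronger binding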
Let's look at some molecules and their measured Percent Control.

# molecule, unit abbrev, Percent Control
records = [
    ("O=C(Nc1n[nH]c2nc(-c3ccc(O)cc3)c(Br)cc12)C1CC1 [SB-725317]", "%", 88),
    ("COc1cc(C)c(N(C)C(=O)CN(C)C)cc1Nc1nc(Nc2cccc(F)c2C(N)=O)c2cc[nH]c2n1 [GSK2219385]", "%", 100),
    ("COc1ccccc1-c1cc(/C=C2\\C(=O)Nc3ncc(Br)cc32)cc(Br)c1O [GW442130X]", "%", 100),
    ("NS(=O)(=O)c1ccc(N/N=C2\\C(=O)Nc3ccc(Cl)cc32)cc1 [GW280670X]", "%", 100),
]
